Measured values drawn from patent US6521611B2 for this set.

Quick list: melting point per entry.

// known answers, use as guide
>>> value_observed("CC1(C(C(=O)NCc2ccccc2)N2C(=O)C(N3C(=O)OCC3c3ccccc3)C2C=Cc2ccccc2)OCCO1 (stereo not shown)")
"150 to 152 °C"
>>> value_observed("CC(C)(C)C[C@@H](C(=O)OCc1ccccc1)N1C(=O)[C@H](N2C(=O)OC[C@H]2c2ccccc2)[C@@H]1C=Cc1ccco1")
"180 °C"
>>> value_observed("CC(C)C[C@@H](C(=O)OCc1ccccc1)N1C(=O)[C@@H](N2C(=O)OC[C@@H]2c2ccccc2)[C@H]1CCc1ccccc1")
"138 to 140 °C"

Now examine the next entry.
Give its melting point value. Item: CC(C)(C)OC(=O)C(C(=O)Cc1cccc(C(F)(F)F)c1)N1C(=O)C(N2C(=O)OCC2c2ccccc2)C1C=Cc1ccccc1 (mixture of isomers) 158 to 160 °C
